tested on: NCI-H322M lung; experiment: NCI-60 one-dose screen, 48 h (100 = growth as untreated, 0 = no growth, -100 = all killed); details: 10 µM
About 83,000 compounds went through this panel and 20% of them were active in at least one assay; those are over-represented in the sample as a whole.
Catalogue of compounds with associated growth
# number only, unit % dropped from output

Examples with answers:
COc1ccc(Cl)cc1C(=O)NCCc1ccc(S(=O)(=O)NC(=O)NC2CCCCC2)cc1 ... 96.2
CC1(C)OB(c2ccc(Cn3cc(F)c(=O)[nH]c3=O)cc2)OC1(C)C ... 102
Cc1[nH]c(-c2nc3ccccc3[nH]2)c(C)c1C(=O)NC(C)C1CCCCC1 (stereo unspecified) ... 89.1
CC#C[C@]1(O)CC[C@H]2[C@@H]3CCC4=CC(=O)CCC4=C3[C@@H](c3ccc4c(c3)OCO4)C[C@@]21C ... 90

Notebook: CC(C)(C)c1cc(NC(=O)Cc2ccc(-c3cnc4cc(-c5cnn(CCN6CCOCC6)c5)ccc4n3)cc2)no1 , growth read as 24.9

Memo: CCCCCCCCCCCCCCCc1ccc(Cl)c(O)c1Cl (tested in a mixture with another compound) , reported growth: 107

* * *

Examples of molecules with documented growth follow.
system: T-47D breast; assay: NCI-60 one-dose screen, 48 h (100 = growth as untreated, 0 = no growth, -100 = all killed); conditions: 10 µM
This is part of a sample that, as a whole, favours compounds with a hit. Of some 83,000 tested, about 20% had one in any assay. Calls of active or inactive are those of the source. Rule for the calls: active = growth percent below 10; inactive = the rest.

Observed growth on T-47D breast, entry CCCCCCCCCCCCCCCc1ccc(Cl)c(O)c1Cl (tested in a mixture with another compound) , equals 85.4% (inactive)

Item: CCc1ccccc1-n1c(N)c(C#N)c(-c2ccc(OC)c(OC)c2)c(C#N)c1=O | System: T-47D breast | growth: 102% (inactive)

Value (growth, T-47D breast) for record O=C(O)c1sccc1O = 53.9% (inactive)

Item CC#C[C@]1(O)CC[C@H]2[C@@H]3CCC4=CC(=O)CCC4=C3[C@@H](c3ccc4c(c3)OCO4)C[C@@]21C ; assay system T-47D breast; growth reported as 45% (inactive)

Bench note, T-47D breast: Cc1[nH]c(-c2nc3ccccc3[nH]2)c(C)c1C(=O)NC(C)C1CCCCC1 (stereo not given) , growth reads 89% (inactive)

* * *

test system: SF-295 CNS; assay: NCI-60 one-dose screen, 48 h (100 = growth as untreated, 0 = no growth, -100 = all killed); details: 10 µM unless noted
The panel holds about 83,000 compounds, 20% with a hit somewhere; the sample as a whole holds those more often.
RECORDED_ENDPOINT: growth (%)
// units = %; emit number, no label

For orientation, consider the following solved cases.
Cc1nnc(NC/C=C/c2ccccc2)s1 ... 99.7
CC(/C=N/N1C(=O)c2ccccc2C1=O)c1ccccc1 (configuration not stated) ... 90.9

// next entry
// growth lookup, compound = CN(Cc1ccccc1)Cc1ccccc1 , result: 112

* * *

test system: HT29 colon; experiment: NCI-60 one-dose screen, 48 h (100 = growth as untreated, 0 = no growth, -100 = all killed); details: 10 µM
About 83,000 compounds went through this panel and 20% of them were active in at least one assay; those are over-represented in the sample as a whole. The source made the active and inactive calls. The calls were made as follows: active = growth percent below 10; inactive = the rest.
Each item that follows carries a reported growth.

CCCCCCCCCCCCCCCc1ccc(Cl)c(O)c1Cl (tested in a mixture with another compound) ... 88% (inactive)

// sample O=C(O)c1sccc1O , its growth was 105% (inactive)

Looking up Cc1[nH]c(-c2nc3ccccc3[nH]2)c(C)c1C(=O)NC(C)C1CCCCC1 (configuration not stated) , I see its growth listed as 94.8% (inactive)

// field: growth; key: CC(C)(C)c1cc(NC(=O)Cc2ccc(-c3cnc4cc(-c5cnn(CCN6CCOCC6)c5)ccc4n3)cc2)no1 ; value = 25.9% (inactive)

Lab book: growth of CNC(=O)c1cc(Oc2ccc(CC(=O)Nc3cc(C(C)(C)C)nn3C)cc2)ccn1 noted as 94.1% (inactive)

Sample CCc1ccccc1-n1c(N)c(C#N)c(-c2ccc(OC)c(OC)c2)c(C#N)c1=O ; growth observed: 110% (inactive)

compound CC#C[C@]1(O)CC[C@H]2[C@@H]3CCC4=CC(=O)CCC4=C3[C@@H](c3ccc4c(c3)OCO4)C[C@@]21C , growth observed: 102% (inactive)

* * *

System: 786-0 renal
Experiment: NCI-60 one-dose screen, 48 h (100 = growth as untreated, 0 = no growth, -100 = all killed)
Settings: 10 µM unless noted
Description: Cells are grown in 96 well plates and exposed to the test compound for 48 hours. Compounds are tested at a single concentration, which is 10^-5 M for most compounds. The reported endpoint is percent growth (GI% or GIPRCNT), where numbers from 0 - 100% represent growth inhibition, and numbers from -100% - 0 represent cell death. For example, a value of 40 represents 60% growth inhibition. A value of 0 means no net growth occurred over the course of the experiment. […]
Compounds without any hit were thinned out: in the full panel of roughly 83,000, 20% have a hit.
RECORDED_ENDPOINT: growth (%)
Give a bare numeral; the unit % is implied.

Cc1ccc(S(=O)(=O)NCN2C(=O)c3ccccc3C2=O)cc1 ... 103
COc1c(/C(C)=N/N=c2sc(C(C)=O)nn2-c2ccc(Cl)cc2)c(Oc2ccccc2)c(OC)c2occc12 ... 102
COc1cc(C(=O)N/N=C/c2ccc(N(C)C)cc2)cc(OC)c1OC ... 42.2
CCC(=O)C(CC)c1cccc(OC)c1 (configuration not stated) ... 103

growth on 786-0 renal for c1ccc(N(c2ccccc2)c2ccccc2)cc1 is 97.9

* * *

Tested on: HOP-92 NSCLC
Assay: NCI-60 one-dose screen, 48 h (100 = growth as untreated, 0 = no growth, -100 = all killed)
Details: 10 µM
Protocol: Growth inhibition of the HOP-92 human Non-Small Cell Lung tumor cell line is measured as a screen for anti-cancer activity. Cells are grown in 96 well plates and exposed to the test compound for 48 hours. Compounds are tested at a single concentration, which is 10^-5 M for most compounds. The reported endpoint is percent growth (GI% or GIPRCNT), where numbers from 0 - 100% represent growth inhibition, and numbers from -100% - 0 represent cell death. […]
The panel holds about 83,000 compounds, 20% with a hit somewhere; the sample as a whole holds those more often.
RECORDED_ENDPOINT: growth (%)
Please state the figure in %; there is no need to write the unit.

These recorded examples may help you get a feel for the data.
CCc1ccccc1-n1c(N)c(C#N)c(-c2ccc(OC)c(OC)c2)c(C#N)c1=O ... 126
CC#C[C@]1(O)CC[C@H]2[C@@H]3CCC4=CC(=O)CCC4=C3[C@@H](c3ccc4c(c3)OCO4)C[C@@]21C ... 66.1
CC(C)(C)c1cc(NC(=O)Cc2ccc(-c3cnc4cc(-c5cnn(CCN6CCOCC6)c5)ccc4n3)cc2)no1 ... -3.35

Kindly consider the entry below.
Entry under test: Cc1[nH]c(-c2nc3ccccc3[nH]2)c(C)c1C(=O)NC(C)C1CCCCC1 (centres undefined) . Its growth was 78.7

* * *

system: HOP-62 NSCLC; assay: NCI-60 one-dose screen, 48 h (100 = growth as untreated, 0 = no growth, -100 = all killed); details: 10 µM
The panel holds about 83,000 compounds, 20% with a hit somewhere; the sample as a whole holds those more often.
Each entry gets Not satisfied if its growth stays under 80%, and Satisfied if its growth is 80% or above.

Use these answered entries as a reference point.
CNC(=O)c1cc(Oc2ccc(CC(=O)Nc3cc(C(C)(C)C)nn3C)cc2)ccn1 ... Not satisfied
CCc1ccccc1-n1c(N)c(C#N)c(-c2ccc(OC)c(OC)c2)c(C#N)c1=O ... Satisfied
CC(C)(C)c1cc(NC(=O)Cc2ccc(-c3cnc4cc(-c5cnn(CCN6CCOCC6)c5)ccc4n3)cc2)no1 ... Not satisfied
CC1(C)OB(c2ccc(Cn3cc(F)c(=O)[nH]c3=O)cc2)OC1(C)C ... Satisfied

Note: attention shifts to another entry.
Has CCCCCCCCCCCCCCCc1ccc(Cl)c(O)c1Cl (tested in a mixture with another compound) a recorded growth greater than or equal to 80%? Satisfied

* * *

test system: TK-10 renal; experiment: NCI-60 one-dose screen, 48 h; conditions: 10 µM unless noted
Compounds without any hit were thinned out: in the full panel of roughly 83,000, 20% have a hit. Calls of active or inactive are those of the source. The calls were made as follows: active = growth percent below 10; inactive = the rest.
Your reply should match one of these outcome classes. 1 for active, -1 for inactive

The following molecules have reported results that may help.
COc1ccc(NC(=S)Nc2ccccn2)cc1 ... -1
c1ccc(N(c2ccccc2)c2ccccc2)cc1 ... -1
CCC1OC2(C)CC(C#N)(C#N)C1(C#N)C(=N)O2 (configuration not stated) ... -1
O=C1c2c(O)cc(O)cc2OC(c2ccc(O)c(O)c2)C1O (configuration not stated) ... -1
Oc1ccccc1C=NCC1CCC(CN=Cc2ccccc2O)CC1 (configuration not stated) ... -1

I'd appreciate the recorded outcome for Cc1ccc2nc3c(nc2c1)-c1cccc2cccc-3c12 from this test. -1

Any idea what this test logged for NCCSC(C[N+](=O)[O-])c1ccccc1Cl (configuration not stated) ? -1

In this assay, the call recorded for O[C@H]1[C@H](O)[C@@H](Cn2nnc(-c3ccccc3)c2-c2ccccc2)OCO[C@@H]1Cn1nnc(-c2ccccc2)c1-c1ccccc1 was what? 1

Dear all, I need the recorded test outcome for CC12CCC(CC1)C(C)(C)O2 , thank you. -1

Which outcome was entered for the molecule O=[N+]([O-])c1ccc(-n2[nH]nnc2=S)cc1 in this test? -1

In this assay, the call recorded for Nc1n[nH]c(=S)n1-c1ccc(Cl)cc1 was what? -1

Hi, sorry to bother you, what did the test record for CC1=CC(=O)c2ccc(C)cc2C1=O ? 1
